Exercise: state measured activation fold for each of the molecules provided.
Molecular target: Alkaline phosphatase, placental type (Homo sapiens) (UniProt P05187)
Sequence (P05187 whole entry, looked up): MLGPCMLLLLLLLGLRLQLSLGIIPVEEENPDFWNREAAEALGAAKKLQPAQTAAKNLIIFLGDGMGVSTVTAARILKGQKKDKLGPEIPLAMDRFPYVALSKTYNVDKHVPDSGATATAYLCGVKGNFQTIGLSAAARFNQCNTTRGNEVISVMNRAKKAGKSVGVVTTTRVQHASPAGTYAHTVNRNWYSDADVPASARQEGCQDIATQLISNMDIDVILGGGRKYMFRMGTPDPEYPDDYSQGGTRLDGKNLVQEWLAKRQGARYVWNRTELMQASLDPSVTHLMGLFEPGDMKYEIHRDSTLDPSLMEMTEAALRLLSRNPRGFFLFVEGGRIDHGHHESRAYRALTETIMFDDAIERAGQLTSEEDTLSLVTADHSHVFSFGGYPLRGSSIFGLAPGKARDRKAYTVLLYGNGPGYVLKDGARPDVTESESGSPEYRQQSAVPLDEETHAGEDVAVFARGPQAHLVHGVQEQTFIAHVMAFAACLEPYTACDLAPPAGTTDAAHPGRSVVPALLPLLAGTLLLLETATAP
Assay: activation of human placental alkaline phosphatase – biochemical, luminescence, HTS (AID 696)
Details: purified PLAP enzyme, luminescent substrate read-out; at 20 µM; active compounds read high
Screen size: about 96,000 compounds; about 1,200 (1.2%) were called active. The sample holds actives, similar compounds and a random draw of the others, so the mix is not that of the screen.
Please give only the number in your answer, with no unit.

// query # get_value(readout='activation fold', item= Cc1cccc(N2C(=O)c3cccnc3C2=O)c1 )
// result 1

// query I am curious: what activation fold value has been reported for O=C(Nc1ccc2c(c1)OCCO2)c1ccc(Cl)c(S(=O)(=O)N2CCCCC2)c1 ?
// result 1.7

// query For Cc1nn(C)cc1/C=C1\CCC/C(=C\c2cn(C)nc2C)C1=O , what is its reported activation fold?
// result 1.8

// query Need activation fold, item COC(=O)c1ccc(CSc2nnc(NC(C)C)s2)cc1
// result 0.9

// query Give its activation fold value. Item: CCCOc1ccc(C2NC(=O)NC(c3ccccc3)=C2C(C)=O)cc1OCC (stereo unspecified)
// result 0.9

// query # query: activation fold of entry Cc1cccc(N2C(=O)C3C(c4ccccc4)OC4(C(=O)c5ccccc5C4=O)C3C2=O)c1 (stereo unspecified)
// result 1.2

// query I'd like to know its activation fold. The molecule in question is CC(C)(C)N1CC(c2nc3ccccc3n2Cc2ccc(F)cc2)CC1=O (stereo unspecified)
// result 1.1

// query Which activation fold reading was recorded for the molecule COc1ccc(Cl)cc1NC(=O)CN(C)C(=O)CNC(=O)C12CC3CC(CC(C3)C1)C2 ?
// result 2

// query Looking for the measured activation fold of CSc1nc(-c2ccco2)nn1C(=O)CCc1ccccc1 , can you help?
// result 1.1

// query Tell me the measured activation fold of CCC(=O)Nc1ccc(C(=O)Nc2cc(C)on2)cc1 , please.
// result 0.9

// query Return reported activation fold; argument: Cn1c(SCC(=O)NC2CCCCC2)nnc1-c1cc2ccccc2o1
// result 1.1

// query Could you share which activation fold value was measured for Cc1cc(C(=O)NCCCc2ccccc2)no1 ?
// result 0.9

// query Fill blank: measured activation fold of the molecule O=C(Nc1cccc(Cl)c1)Nc1nnc(-c2ccccc2)o1 is ____.
// result 1.1

// query Which activation fold is listed for O=C(Nc1cc(C(F)(F)F)ccc1Cl)c1cc2nc3c(c(C(F)(F)F)n2n1)CCCC3 ?
// result 1.6

// query Request the reported activation fold associated with COc1ccccc1NC1=NC2(CCCC2)N=C(N)N1
// result 0.8

// query Reported activation fold, molecule C1=C(CCNc2ncnc3c2cnn3-c2ccccc2)CCCC1 : ____
// result 0.7

// query Return reported activation fold; argument: Cc1ccc(-n2nc(N)c3c(=O)oc(N(C)C)nc32)cc1
// result 1.1

// query Record request: activation fold value, item c1ccc2c(c1)OCC(CNc1ncnc3nc[nH]c13)O2 (stereo unspecified)
// result 1.6

// query Fill in the blank: the reported activation fold of Cc1ccc(/C=N\n2c(-c3ccccc3)n[nH]c2=S)s1 is ____.
// result 1.3

// query So what's the measured activation fold for this one? CCc1ccc(N(CC)c2ncnc3nc[nH]c23)cc1
// result 2

// query GET /values?readout=activation fold&item= COc1ccc(OCC(=O)NNC(=O)c2ccc(-c3ccccc3)cc2)cc1
// result 1.5

// query Which activation fold value is on record for CCOc1ccccc1Oc1cn[nH]c1-c1ccc(OC)cc1O ?
// result 2.8

// query Using the record for Cc1cccc(NC(=O)CSC(N)=O)c1C , report its activation fold.
// result 1.7

// query What value of measured activation fold is listed for O=C(COC(=O)c1ccc(Oc2ccccc2)cc1)Nc1nnc(-c2ccccc2)o1 ?
// result 2

// query Would you mind telling me what activation fold value was observed for C[C@H](NC(=O)OC(C)(C)C)c1nnc(SCC(=O)Nc2ccc(Br)cc2)o1 ?
// result 1.2

// query Name the reported activation fold value associated with the molecule O=C(NCCCN1CCOCC1)c1cc2c(s1)CCC2
// result 1.3

// query Quick one: activation fold for Oc1c(C(c2ccccn2)N2CCOCC2)ccc2cccnc12 (stereo unspecified) ?
// result 2.2

// query Report activation fold for CCc1ccccc1NC(=O)CSc1nnc([C@@H](NC(=O)OC(C)(C)C)C(C)C)o1 please.
// result 1.4

// query Name the reported activation fold value associated with the molecule Cc1ccc(C(c2sc3nc(C)nn3c2O)N2CCN(c3ccc(F)cc3)CC2)cc1 (stereo unspecified)
// result 1.7

// query For the molecule shown here, CCCCC(=O)N/N=C(\C)CC(=O)Nc1cc(Cl)ccc1OC , give the reported activation fold.
// result 0.9

// query Name the recorded activation fold for Cn1c(-c2sc3cc(C(F)(F)F)cnc3c2-c2ccccc2)n[nH]c1=S .
// result 2.6

// query Would you kindly share the measured activation fold for Cc1cccc(NC(=O)CSc2nnc(CCCCCNC(=O)OC(C)(C)C)o2)c1C ?
// result 2.4

// query # input molecule: COc1ccccc1OCc1nc2ccccc2s1 ; wanted: its activation fold
// result 1

// query Fill blank: measured activation fold of the molecule Cc1[nH][nH]c(=O)c1N=Nc1ccccc1 is ____.
// result 1.1

// query I'd like to know its activation fold. The molecule in question is COC(=O)c1ccccc1NC(=O)CN(Cc1ccc(Cl)cc1)S(C)(=O)=O
// result 1.5

// query Dear colleague, I am looking for the recorded activation fold of the following molecule: COc1ccc(Cl)cc1NC(=O)c1oc(C)nc1C
// result 1.4

// query GET /values?readout=activation fold&item= O=S(=O)(NC1CCCCC1)c1ccc(F)c2ccccc12
// result 0.7

// query Suppose we examine the molecule CCOc1cc(N2CCOCC2)c(OCC)cc1NC(=O)COc1cccc2cccnc12 ; what activation fold value has been reported?
// result 1.4

// query May I ask what activation fold has been recorded for CCCCNC(=S)NNC(=O)c1cc(C)on1 ?
// result 2

// query Bench note: what activation fold did C=C(C)COc1ccc(-c2n[nH]c(C)c2-c2ccccc2OC)c(O)c1 show?
// result 1

// query # get_value(readout='activation fold', item= CCCCNC(=O)C(=O)c1ccccc1NC(C)=O )
// result 0.9

// query Entry Oc1c(C(c2cccs2)N2CCN(c3ccc(F)cc3)CC2)sc2ncnn12 (stereo unspecified) : reported activation fold = ?
// result 2

// query Quick check: activation fold of Cc1cc([N+](=O)[O-])ccc1NCc1cccc([N+](=O)[O-])c1 ?
// result 1

// query What measured activation fold goes with CCOC(=O)Cc1csc(NC(NC(=O)OCC)(C(F)(F)F)C(F)(F)F)n1 ?
// result 0.9

// query // lookup activation fold for Cc1ccc(NC(=S)NC(NC(=O)Cc2cccc3ccccc23)C(Cl)(Cl)Cl)cc1 (stereo unspecified)
// result 0.6

// query Record request: activation fold value, item CCOc1ccc2nc(NCCNS(=O)(=O)c3ccccc3)c(C#N)cc2c1
// result 1
